Study System: ASGPR receptor on the cell surface (HepG2 cells) (Homo sapiens, UniProt P07306)
Construct: host or cells: HepG2
Sequence (P07306 1-291): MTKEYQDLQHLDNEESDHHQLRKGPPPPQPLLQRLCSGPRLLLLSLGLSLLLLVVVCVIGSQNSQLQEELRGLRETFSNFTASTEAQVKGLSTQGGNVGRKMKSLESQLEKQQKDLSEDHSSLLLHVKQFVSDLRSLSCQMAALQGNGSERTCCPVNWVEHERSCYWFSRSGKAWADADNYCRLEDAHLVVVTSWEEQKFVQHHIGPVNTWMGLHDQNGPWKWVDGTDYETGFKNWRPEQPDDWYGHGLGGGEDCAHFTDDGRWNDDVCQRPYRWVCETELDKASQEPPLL
Sequence (P07307 1-311 partner): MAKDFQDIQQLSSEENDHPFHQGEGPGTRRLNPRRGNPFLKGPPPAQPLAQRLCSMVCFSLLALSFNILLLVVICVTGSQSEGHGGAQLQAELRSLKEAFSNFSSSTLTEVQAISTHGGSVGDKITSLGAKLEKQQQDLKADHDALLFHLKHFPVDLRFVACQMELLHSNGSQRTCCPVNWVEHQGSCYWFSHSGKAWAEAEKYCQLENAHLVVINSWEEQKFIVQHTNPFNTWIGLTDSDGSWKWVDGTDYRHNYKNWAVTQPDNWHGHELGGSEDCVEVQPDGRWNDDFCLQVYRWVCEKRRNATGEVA
Assay Summary: Ternary complex formation assay (flow cytometry, HepG2)
Type: cell-based
Condition Context: Ternary Complex EC50 (nM), HepG2 cells, 100 nM AF488-labeled antibody, 1 hour at 4° C.; class symbols

Compound	Study System	EC50
O=C(CCOCC(COCCC(=O)NCCOCCOCCOCCOC[C@H]1OC[C@H](Nc2nccc(C(F)(F)F)n2)[C@@H](O)[C@H]1O)NC(=O)COCCOCCOCCNc1ccc([N+](=O)[O-])cc1[N+](=O)[O-])NCCOCCOCCOCCOC[C@H]1OC[C@H](Nc2nccc(C(F)(F)F)n2)[C@@H](O)[C@H]1O	ASGPR receptor on the cell surface (HepG2 cells) (Homo sapiens, UniProt P07306)	< 100 nM
O=C(CCOCCNC(=O)COCCOCCOCCNc1ccc([N+](=O)[O-])cc1[N+](=O)[O-])NCCOCCOCCOCCOC[C@@]12CO[C@@H](O1)[C@H](Nc1nc(Cl)ns1)[C@@H](O)[C@H]2O	ASGPR receptor on the cell surface (HepG2 cells) (Homo sapiens, UniProt P07306)	< 100 nM
O=[N+]([O-])c1ccc(NCCOCCOCCOCCOCCOCCOCCOC[C@@]23CO[C@@H](O2)[C@H](Nc2nc(Cl)ns2)[C@@H](O)[C@H]3O)c([N+](=O)[O-])c1	ASGPR receptor on the cell surface (HepG2 cells) (Homo sapiens, UniProt P07306)	< 100 nM

====

Study System: ASGPR receptor on the cell surface (HepG2 cells) (Homo sapiens)
Construct: host or cells: HepG2
Assay Summary: Ternary complex formation assay (flow cytometry, HepG2)
Assay type: cell-based
Condition Context: HepG2 cells, ternary complex formation; read-out: TCF EC50

Compound	EC50
CC(C)C[C@@H]1NC(=O)[C@H](Cc2cnc[nH]2)NC(=O)[C@H](Cc2c[nH]c3ccccc23)NC(=O)[C@H](C)NC(=O)[C@@H]2CSSC[C@H](NC(=O)[C@H](Cc3c[nH]c4ccccc34)NC(=O)[C@H](C(C)C)NC(=O)[C@H](CC(C)C)NC(=O)[C@H](CCC(=O)O)NC(=O)CNC1=O)C(=O)N[C@@H]([C@@H](C)O)C(=O)N1CCC[C@@H]1C(=O)N1C[C@@H](NC(=O)c3ccc(C(=O)NC[C@H]4OC[C@H](Nc5cncc(C(F)(F)F)n5)[C@@H](O)[C@H]4O)cc3)C[C@H]1C(=O)N[C@@H](CC(=O)O)C(=O)N2 [Compound 67]	> 1000 nM
